studySystem: T1, DGI-2 polypeptide (UniProt Q15004 1-111, limits assumed)
T1 construct: Vector-derived residues or tag of pIVEX2.3 are not described for this construct; also called KIAA0101
T1 sequence (looked up): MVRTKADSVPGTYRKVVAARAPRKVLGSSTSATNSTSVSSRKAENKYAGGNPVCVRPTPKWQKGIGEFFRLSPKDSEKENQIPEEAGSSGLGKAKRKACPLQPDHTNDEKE
protocolNotes: phage ELISA, 405 nm; DGI-2 coated
Entries and their DGI-2 (OD)
readout: DGI-2 (OD)

binder | readout | testResult
FSSVLGLLDRRGVPVVVGEDAAAGAPVPYPDPLEPRP (not shown: phage gene III coat protein (pCANTAB5E)) [DGI-2-20F-3-C3] | DGI-2 (OD) | 1.1
DGI-2-40F-3-D3 (not shown: phage gene III coat protein (pCANTAB5E)) peptide: VQFAMTLSSRLWQHARHPLTDDAPPTVSFGTRRETLAGKAAAAGAPVPYPDPLEPRP | DGI-2 (OD) | 0.9
LSRIWRGVIESAREVESRGIAAAGAPVPYPDPLEPRP (not shown: phage gene III coat protein (pCANTAB5E)) [DGI-2-20F-3-B1] | DGI-2 (OD) | 1.2
GMWIRPNGHMFLQGGYTARSAAAGAPVPYPDPLEPRP (not shown: phage gene III coat protein (pCANTAB5E)) [DGI-2-20R-4-G8] | DGI-2 (OD) | 1.5
SLSLYWDAQVGCEVFWGYCVAAAGAPVPYPDPLEPRP (not shown: phage gene III coat protein (pCANTAB5E)) [DGI-2-20R-3-C10] | DGI-2 (OD) | 2.2
DGI-2-40F-3-D7 (not shown: phage gene III coat protein (pCANTAB5E)) peptide: ALRSLGSGGFGWQAGRASPQGMTHFPYFGWSGMPTARVRPAAAGAPVPYPDPLEPRP | DGI-2 (OD) | 2.6
RNWLDKDCVWMGDCGARAGEAAAGAPVPYPDPLEPRP (not shown: phage gene III coat protein (pCANTAB5E)) [DGI-2-20F-4-E3] | DGI-2 (OD) | 3.8
DGI-2-40F-3-B5 (not shown: phage gene III coat protein (pCANTAB5E)) peptide: RSRSSSGASGSMLRVQNHMVLGSWMVRQPMGSMTPFHGHGAAAGAPVPYPDPLEPRP | DGI-2 (OD) | 1
TSCQVMFLAGQHLLSRVPRLAAAGAPVPYPDPLEPRP (not shown: phage gene III coat protein (pCANTAB5E)) [DGL-2-20R-3-B6] | DGI-2 (OD) | 2.8
LSHPMSPLRAASQMALTQGVAAAGAPVPYPDPLEPRP (not shown: phage gene III coat protein (pCANTAB5E)) [DGI-2-20R-4-H7] | DGI-2 (OD) | 3.1
RWSLPAYLCRFVSQASCNSRAAAGAPVPYPDPLEPRP (not shown: phage gene III coat protein (pCANTAB5E)) [DGI-2-20R-3-C12] | DGI-2 (OD) | 1.6
TANGHRYGGCGLWCKWMSGMAAAGAPVPYPDPLEPRP (not shown: phage gene III coat protein (pCANTAB5E)) [DGI-2-20R-4-E2] | DGI-2 (OD) | 2.7
MGSLGPFGNINSLASGIGSVRNRPLLPLHGSPAAAGAPVPYPDPLEPRP (not shown: phage gene III coat protein (pCANTAB5E)) [DGI-2-40F-3-D72] | DGI-2 (OD) | 3.1
PAMGHCMQVLGPVLEGRSRDQVGRAAAGAPVPYPDPLEPRP (not shown: phage gene III coat protein (pCANTAB5E)) [DGI-2-20R-4-G6] | DGI-2 (OD) | 1.6
LVIQCSASVVACDLYWNYVGCLAAGAAAGAPVPYPDPLEPRP (not shown: phage gene III coat protein (pCANTAB5E)) [DGI-2-20C-3-D12] | DGI-2 (OD) | 1.1
MSTLQGPGHLFQMLRRASLGAAAGAPVPYPDPLEPRP (not shown: phage gene III coat protein (pCANTAB5E)) [DGI-2-20R-4-H12] | DGI-2 (OD) | 3.7
